Kindly state IC50 for each of the entries shown.
- experimental.target: CRF1 (Homo sapiens)
- Construct: endogenously expresses functional CRF1; endogenous in cells; host or cells: Y-79 human retinoblastoma cells
- Sequence (P34998 24-415): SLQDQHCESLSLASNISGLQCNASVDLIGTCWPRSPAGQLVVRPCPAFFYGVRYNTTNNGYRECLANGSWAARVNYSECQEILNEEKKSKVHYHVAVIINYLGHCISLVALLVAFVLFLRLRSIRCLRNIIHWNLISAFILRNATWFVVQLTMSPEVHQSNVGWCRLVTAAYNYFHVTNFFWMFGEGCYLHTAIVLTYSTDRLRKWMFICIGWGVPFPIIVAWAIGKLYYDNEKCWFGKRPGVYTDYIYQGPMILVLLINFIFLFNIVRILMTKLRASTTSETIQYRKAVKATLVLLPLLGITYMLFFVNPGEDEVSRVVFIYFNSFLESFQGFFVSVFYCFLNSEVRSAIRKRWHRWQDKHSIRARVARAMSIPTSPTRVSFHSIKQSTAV
- assay.summary: CRF1 assessment of cAMP (HTRF cAMP assay) in Y-79 cells, antagonist mode
- Type: cell-based
- condition.parameters: CRF1 cAMP screening, Y79 cells, against agonist
Where a SMILES comes first, the peptide text is derived from it. The star is where a group is joined. Palmitoyl = CCCCCCCCCCCCCCCC(=O)*

The following compounds have reported results that may help.
[
  {
    "compound": "CCCCCCCCCCCCCCCC(=O)NCC(=O)N[C@@H](CO)C(=O)NCC(=O)N[C@@H](CCCNC(=N)N)C(=O)N[C@@H](CC(C)C)C(=O)N[C@@H](CCCNC(=N)N)C(=O)N[C@@H](CCCCN)C(=O)N[C@@H](Cc1c[nH]c2ccccc12)C(=O)N[C@@H](CCSC)C(=O)N[C@@H](Cc1ccccc1)C(=O)N[C@H](C(N)=O)[C@@H](C)CC [Compound 26] (Palmitoyl-GSGRLRKWMFI-NH2)",
    "measured.value": "1 to 5 µM"
  },
  {
    "compound": "CCCCCCCCCCCCCCCC(=O)N[C@@H](C)C(=O)N[C@@H](CC(=O)O)C(=O)N[C@@H](CCCNC(=N)N)C(=O)N[C@@H](CC(C)C)C(=O)N[C@@H](CCCNC(=N)N)C(=O)N[C@@H](CCCCN)C(=O)N[C@@H](Cc1c[nH]c2ccccc12)C(=O)N[C@@H](CCSC)C(=O)N[C@@H](Cc1ccccc1)C(=O)N[C@H](C(N)=O)[C@@H](C)CC [Compound 44] (Palmitoyl-ADRLRKWMFI-NH2)",
    "measured.value": "> 10 µM"
  },
  {
    "compound": "CCCCCCCCCCCCCCCC(=O)N[C@@H](CC(=O)O)C(=O)N[C@@H](CCCNC(=N)N)C(=O)N[C@@H](CC(C)C)C(=O)N[C@@H](CCCNC(=N)N)C(=O)N[C@@H](CCCCN)C(=O)N[C@@H](Cc1c[nH]c2ccccc12)C(=O)N[C@@H](CCSC)C(=O)N[C@@H](Cc1ccccc1)C(=O)N[C@H](C(N)=O)[C@@H](C)CC [Compound 31] (Palmitoyl-DRLRKWMFI-NH2)",
    "measured.value": "1 to 5 µM"
  },
  {
    "compound": "CCCCCCCCCCCCCCCC(=O)N[C@H](C(=O)N[C@@H](CC(=O)O)C(=O)N[C@@H](CCCNC(=N)N)C(=O)N[C@@H](CC(C)C)C(=O)N[C@@H](CCCNC(=N)N)C(=O)N[C@@H](C)C(=O)N[C@@H](Cc1c[nH]c2ccccc12)C(=O)N[C@@H](CCSC)C(=O)N[C@@H](Cc1ccccc1)C(=O)N[C@H](C(N)=O)[C@@H](C)CC)[C@@H](C)O [Compound 49] (Palmitoyl-TDRLRAWMFI-NH2)",
    "measured.value": "> 10 µM"
  },
  {
    "compound": "CCCCCCCCCCCCCCCC(=O)N[C@H](C(=O)N[C@@H](CC(=O)O)C(=O)N[C@@H](CCCNC(=N)N)C(=O)N[C@@H](CC(C)C)C(=O)N[C@@H](CCCNC(=N)N)C(=O)N[C@@H](CCCCN)C(=O)N[C@@H](C)C(=O)N[C@@H](CCSC)C(=O)N[C@@H](Cc1ccccc1)C(=O)N[C@H](C(N)=O)[C@@H](C)CC)[C@@H](C)O [Compound 50] (Palmitoyl-TDRLRKAMFI-NH2)",
    "measured.value": "> 10 µM"
  }
]

Each compound below has a recorded value; state its IC50.
1. CCCCCCCCCCCCCCCC(=O)N[C@@H](CCCNC(=N)N)C(=O)N[C@H](C(=O)N[C@@H](CC(C)C)C(=O)N[C@@H](CCSC)C(=O)N[C@H](C(=O)N[C@@H](CCCCN)C(=O)N[C@@H](CC(C)C)C(=O)N[C@@H](CCCNC(=N)N)C(=O)N[C@@H](C)C(=O)N[C@@H](CO)C(=O)N[C@H](C(=O)N[C@H](C(=O)N[C@@H](CO)C(N)=O)[C@@H](C)O)[C@@H](C)O)[C@@H](C)O)[C@@H](C)CC [Compound 58, Pal-RILMTKLRASTTS-amide] (Palmitoyl-RILMTKLRASTTS-NH2)
2. CCCCCCCCCCCCCCCC(=O)NCC(=O)N[C@@H](CO)C(=O)N[C@@H](CCCNC(=N)N)C(=O)N[C@@H](CC(C)C)C(=O)N[C@@H](CCCNC(=N)N)C(=O)N[C@@H](CCCCN)C(=O)N[C@@H](Cc1c[nH]c2ccccc12)C(=O)N[C@@H](CCSC)C(=O)N[C@@H](Cc1ccccc1)C(=O)N[C@H](C(N)=O)[C@@H](C)CC [Compound 28] (Palmitoyl-GSRLRKWMFI-NH2)
3. CCCCCCCCCCCCCCCC(=O)N[C@H](C(=O)N[C@@H](CC(=O)O)C(=O)N[C@@H](CCCNC(=N)N)C(=O)N[C@@H](CC(C)C)C(=O)N[C@@H](CCCNC(=N)N)C(=O)N[C@@H](CCCCN)C(=O)N[C@@H](Cc1c[nH]c2ccccc12)C(=O)N[C@@H](CCSC)C(=O)N[C@@H](Cc1ccccc1)C(=O)N[C@@H](C)C(N)=O)[C@@H](C)O [Compound 52] (Palmitoyl-TDRLRKWMFA-NH2)
4. CCCCCCCCCCCCCCCC(=O)NCC(=O)N[C@@H](CO)C(=O)N[C@H](C(=O)N[C@@H](CC(=O)O)C(=O)N[C@@H](CCCNC(=N)N)C(=O)N[C@@H](CC(C)C)C(=O)N[C@@H](CCCNC(=N)N)C(=O)N[C@@H](CCCCN)C(=O)N[C@@H](C)C(=O)N[C@@H](CCSC)C(=O)N[C@@H](Cc1ccccc1)C(=O)N[C@H](C(N)=O)[C@@H](C)CC)[C@@H](C)O [Compound 40] (Palmitoyl-GSTDRLRKAMFI-NH2)
5. CCCCCCCCCCCCCCCC(=O)N[C@@H](C)C(=O)N[C@@H](CO)C(=O)N[C@H](C(=O)N[C@H](C(=O)N[C@@H](CO)C(=O)N[C@@H](CCC(=O)O)C(=O)N[C@H](C(=O)N[C@H](C(=O)N[C@@H](CCC(N)=O)C(=O)N[C@@H](Cc1ccc(O)cc1)C(=O)N[C@@H](CCCNC(=N)N)C(=O)N[C@@H](CCCCN)C(=O)N[C@@H](C)C(=O)N[C@H](C(=O)N[C@@H](CCCCN)C(=O)N[C@@H](CO)C(N)=O)C(C)C)[C@@H](C)CC)[C@@H](C)O)[C@@H](C)O)[C@@H](C)O [Compound 62] (Palmitoyl-ASTTSETIQYRKAVKS-NH2)

Result:
1. 0.501 to 1 µM
2. 1 to 5 µM
3. > 10 µM
4. 0.501 to 1 µM
5. 1 to 5 µM
